- Assay method text: Solubility of compound in solvent
- Type: physicochemical
- Set-up: key: Good: represents that the compound was completely dissolved; Poor: represents that an insoluble matter remained
- Details: 30% by weight of compound, 40° C., after 30 minutes, visual
Measure: solubility in methoxybenzene

* C=CC(=O)OCCCCCCOc1ccc(CCC(=O)O[C@H]2CC[C@H](C(=O)Oc3ccc(OC(=O)[C@H]4CC[C@H](OC(=O)CCc5ccc(OCCCCCCOC(=O)C=C)cc5)CC4)c4nc(-c5ccccc5)cnc34)CC2)cc1 | Good
* C=CC(=O)OCCCCOc1ccc(OC(=O)[C@H]2CC[C@H](C(=O)Oc3ccc(OC(=O)[C@H]4CC[C@H](C(=O)Oc5ccc(OCCCCOC(=O)C=C)cc5)CC4)c4sc(-c5ccccc5)nc34)CC2)cc1 | Poor
* C=CC(=O)OCCCCOc1ccc(OC(=O)C2CCC(C(=O)Oc3ccc(OC(=O)C4CCC(C(=O)Oc5ccc(OCCCCOC(=O)C=C)cc5)CC4)c(C=NNc4nc5ccccc5s4)c3)CC2)cc1 (stereo not shown) | Poor
* C=CC(=O)OCCCCCCOc1ccc(CCC(=O)O[C@H]2CC[C@H](C(=O)Oc3ccc(OC(=O)[C@H]4CC[C@H](OC(=O)CCc5ccc(OCCCCCCOC(=O)C=C)cc5)CC4)c4nc(-c5ccccc5)c(C)nc34)CC2)cc1 | Good

###

- Assay method text: Solubility of compound in solvent
- Assay type: physicochemical
- Parameters: key: Good: represents that the compound was completely dissolved; Poor: represents that an insoluble matter remained
- Details: 30% by weight of compound, 40° C., after 30 minutes, visual
- Method: With regard to various solvents, a specific amount of compound (1-1-1-1) was added to various solvents each, and the resulting mixture was warmed in warm water at 40° C., and an aspect after 30 minutes was visually confirmed. A similar method was tried in compound (1-1-2-1), compound (C-1) and compound (C-2) in place of compound (1-1-1-1). […]
Measure: solubility in 2-acetoxy-1-methoxypropane

• C=CC(=O)OCCCCCCOc1ccc(CCC(=O)O[C@H]2CC[C@H](C(=O)Oc3ccc(OC(=O)[C@H]4CC[C@H](OC(=O)CCc5ccc(OCCCCCCOC(=O)C=C)cc5)CC4)c4nc(-c5ccccc5)cnc34)CC2)cc1 [Compound (1-1-1-1)] = Poor
• C=CC(=O)OCCCCOc1ccc(OC(=O)C2CCC(C(=O)Oc3ccc(OC(=O)C4CCC(C(=O)Oc5ccc(OCCCCOC(=O)C=C)cc5)CC4)c(C=NNc4nc5ccccc5s4)c3)CC2)cc1 (stereo not shown) [Compound (C-2)] = Poor
• C=CC(=O)OCCCCOc1ccc(OC(=O)[C@H]2CC[C@H](C(=O)Oc3ccc(OC(=O)[C@H]4CC[C@H](C(=O)Oc5ccc(OCCCCOC(=O)C=C)cc5)CC4)c4sc(-c5ccccc5)nc34)CC2)cc1 [Compound (C-1)] = Poor
• C=CC(=O)OCCCCCCOc1ccc(CCC(=O)O[C@H]2CC[C@H](C(=O)Oc3ccc(OC(=O)[C@H]4CC[C@H](OC(=O)CCc5ccc(OCCCCCCOC(=O)C=C)cc5)CC4)c4nc(-c5ccccc5)c(C)nc34)CC2)cc1 [Compound (1-1-2-1)] = Poor

###

- Assay method text: Solubility of compound in solvent
- Assay type: physicochemical
- Parameters: key: Good: represents that the compound was completely dissolved; Poor: represents that an insoluble matter remained
- Details: 30% by weight of compound, 40° C., after 30 minutes, visual
Measure: solubility in cyclohexanone

- C=CC(=O)OCCCCCCOc1ccc(CCC(=O)O[C@H]2CC[C@H](C(=O)Oc3ccc(OC(=O)[C@H]4CC[C@H](OC(=O)CCc5ccc(OCCCCCCOC(=O)C=C)cc5)CC4)c4nc(-c5ccccc5)cnc34)CC2)cc1: Good
- C=CC(=O)OCCCCCCOc1ccc(CCC(=O)O[C@H]2CC[C@H](C(=O)Oc3ccc(OC(=O)[C@H]4CC[C@H](OC(=O)CCc5ccc(OCCCCCCOC(=O)C=C)cc5)CC4)c4nc(-c5ccccc5)c(C)nc34)CC2)cc1: Good
- C=CC(=O)OCCCCOc1ccc(OC(=O)[C@H]2CC[C@H](C(=O)Oc3ccc(OC(=O)[C@H]4CC[C@H](C(=O)Oc5ccc(OCCCCOC(=O)C=C)cc5)CC4)c4sc(-c5ccccc5)nc34)CC2)cc1: Poor
- C=CC(=O)OCCCCOc1ccc(OC(=O)C2CCC(C(=O)Oc3ccc(OC(=O)C4CCC(C(=O)Oc5ccc(OCCCCOC(=O)C=C)cc5)CC4)c(C=NNc4nc5ccccc5s4)c3)CC2)cc1 (stereo not shown): Poor
